test system: SW-620 colon; test: NCI tumour cell line growth inhibition, 48 h
So basically: TGI at 40 µM or higher? That is Condition met. Lower than 40 µM? That is Condition not met.

The examples below pair each entry with its known result.
Molecule: C=C1C(=O)O[C@H]2C(=O)[C@H](C)CCC/C(C)=C/CC[C@@]3(C)O[C@@H]3C[C@@H]12
Class: Condition not met
//
Molecule: Cc1ccc(S(=O)(=O)NC(=O)NC(CCCCN)C(=O)O)cc1 (centres undefined)
Class: Condition met
//
Molecule: [pH]1p2[pH]p3p1p3[pH]2.c1cc[c]([Ge]([c]2ccccc2)[c]2ccccc2)cc1.c1cc[c]([Ge]([c]2ccccc2)[c]2ccccc2)cc1.c1cc[c]([Ge]([c]2ccccc2)[c]2ccccc2)cc1
Class: Condition not met
//
Molecule: CCOC(=O)/C1=C(\C)N(Cc2ccccc2)C(=O)c2ccccc2C(=O)c2c(OC(C)=O)ccc(OC(C)=O)c21
Class: Condition met
//
Molecule: O=C1CCC2(c3ccccc3)OCC([C@@H](O)c3ccccc3)N12 (some centres undefined)
Class: Condition met
//
Molecule: O=S(=O)(Cc1ccccc1)c1nnc(S(=O)(=O)c2ccc(Cl)cc2)s1
Class: Condition met
//
Molecule: Oc1ccc(/C=N/NC(=S)Nc2ccccc2)nc1
Class: Condition met

Let us examine a further case.
Data request: Hello, I need to know if C=CC(=O)C#Cc1cnc(OC)nc1OC has measured TGI not below 40 µM. Thanks!
Data returned: Condition not met

###

system: NCI-H23 lung; assay: NCI tumour cell line growth inhibition, 48 h
Property: TGI; scope: individual compounds

Data request: Param item = CC(=O)n1nc(-c2[nH]c(C)c(-c3nn(C(C)=O)c(=S)o3)c2C)oc1=S ; retrieve measured TGI.
Data returned: > 100 µM

Data request: What does the record list as TGI for O=S1(=O)C[C@H](NCc2ccccc2)[C@H](NCc2ccccc2)C1 ?
Data returned: > 100 µM

Data request: Requested read-out: TGI. Entry: C=C1C(=O)O[C@H]2C(=O)[C@H](C)CCC/C(C)=C/CC[C@@]3(C)O[C@@H]3C[C@@H]12
Data returned: 29.3 µM

###

Here, each record is paired with measured TGI data.
tested on: CAKI-1 renal; assay: NCI tumour cell line growth inhibition, 48 h

Here's what some known entries look like.
Compound: C#CCC(O)c1ccc(OC)c(OCc2ccccc2)c1 (centres undefined)
TGI: > 100 µM
--
Compound: O=S(=O)(N=[Se](=O)(c1ccccc1)c1ccccc1)c1ccccc1
TGI: > 100 µM
--
Compound: C=C(Cl)[C@](Cl)(CBr)CC[C@@H](Br)C(C)(C)Cl
TGI: 0.751 µM

Consider now this further compound.
Data request: Look up TGI: Cc1ccc2c(-c3ccnc(Nc4cccc(C(F)(F)F)c4)n3)c(-c3ccccc3)nn2n1
Data returned: > 25 µM

###

test system: T-47D breast; assay: NCI tumour cell line growth inhibition, 48 h
Entries and their measured TGI follow.

Compound: O=S1(=O)C[C@H](NCc2ccccc2)[C@H](NCc2ccccc2)C1
TGI: 86.4 µM
//
Compound: Cc1[nH]c(N)nc(=S)c1CCCNc1ccccc1
TGI: > 100 µM
//
Compound: O=C(O)C1CC[N-]CC1.O=C(O)C1CC[N-]CC1.[NH2-].[NH2-].[Pt+4]
TGI: > 100 µM
//
Compound: O=S(=O)(Cc1ccccc1)c1nnc(S(=O)(=O)c2ccc(Cl)cc2)s1
TGI: > 100 µM
//
Compound: COc1ccc(NC(=O)CSc2nc(C)nc3c2sc(=S)n3-c2ccccc2)cc1
TGI: > 10 µM
//
Compound: Cc1cccc2c(N)c3cccc(C(=O)NCCNCCN)c3nc12
TGI: > 86.1 µM
//
Compound: O=Nn1c2ccccc2c2ccccc21
TGI: > 100 µM
//
Compound: COc1cc2c3c(n(CCCNCCCCN)c(=O)c2cc1OC)-c1cc2c(cc1C3=O)OCO2
TGI: 27.1 µM
//
Compound: OCC1NC(CO)C(O)C1O (stereo unspecified)
TGI: > 100 µM
//
Compound: COC(=O)C1C(=O)C(C(=O)OC)C2CCC1N2C (stereo unspecified)
TGI: > 100 µM

Data request: What TGI value was documented for this compound, COc1cccc(N2C(=N)/C(=C3\Nc4ccccc4S3)CC2=O)c1 ?
Data returned: > 100 µM

###

This section presents compounds with their documented TGI values.
system: A549 NSCLC; test: NCI tumour cell line growth inhibition, 48 h

Completed entries (count: 3):
Compound: Cc1cc(NS(=O)(=O)c2ccc(NC(=O)c3cccc4c(Nc5ccc(S(=O)(=O)Nc6cc(C)on6)cc5)c5ccc(Cl)cc5nc34)cc2)no1
Assay Endpoint: TGI
Result: > 100 µM
//
Compound: C=C(CC)C(=O)c1ccc(OCC(=O)O)c(Cl)c1Cl
Assay Endpoint: TGI
Result: > 100 µM
//
Compound: CC(C)(C)OC(=O)NC(Cc1ccc(OC(C)(C)C)cc1)C(=O)N[C@H]1CC[C@H](C(=O)O)C1 (some centres not stated)
Assay Endpoint: TGI
Result: > 100 µM

Data request: Any idea what its TGI is? The compound is COC(=O)NC1=Nc2ccccc2C(=O)NN1
Data returned: > 100 µM

Data request: Any idea what its TGI is? The compound is CC[C@]1(O)CC2CN(CCc3c([nH]c4ccccc34)C(C(=O)OC)(c3cc4c(cc3OC)N(C=O)[C@H]3[C@@](O)(C(=O)OC)[C@H](OC(C)=O)[C@]5(CC)[C@@H]6C[C@@H]6CN6CC[C@]43[C@@H]65)C2)C1 (some centres not stated)
Data returned: > 30.7 µM

Data request: Item O=S(=O)(Cc1ccccc1)c1nnc(S(=O)(=O)c2ccc(Cl)cc2)s1 has what recorded TGI?
Data returned: 68.1 µM

Data request: Could you tell me which TGI is on file for CC1CCC2C(C)C(OC(=O)CCC(=O)O)OC3OC4(C)CCC1C32OO4 (configuration not stated) ?
Data returned: 29.9 µM

Data request: # query: TGI of entry CCOc1cc(CC[N+](C)(C)C)c2c(ccc3ccc(OC)c(OC)c32)c1OC
Data returned: > 100 µM

Data request: Name the recorded TGI for c1ccc(-c2sc(-c3ccccc3)c3c2C(c2ccccc2)c2c(-c4ccccc4)sc(-c4ccccc4)c2C3c2ccccc2)cc1 (configuration not stated) .
Data returned: > 100 µM

Data request: What value of measured TGI is listed for C#CCNCC(=O)O ?
Data returned: > 100 µM

Data request: Any idea what its TGI is? The compound is CCCCN(CCCC)CC(C(=O)Nc1ccc([N+](=O)[O-])cc1[N+](=O)[O-])/C(C)=N\NC(=O)c1ccncc1 (configuration not stated)
Data returned: > 100 µM

###

TGI values, listed per item
test system: HS 578T breast; experiment: NCI tumour cell line growth inhibition, 48 h

Sample answers from the record:
Compound: N#CC(Cl)CS(=O)(=O)c1ccccc1 (configuration not stated)
Result: > 100 µM
--
Compound: Cc1cc(N(C)c2ccccc2)nc(N(C)c2ccccc2)n1
Result: > 100 µM
--
Compound: CC1CCC2C(C)C(OC(=O)CCC(=O)O)OC3OC4(C)CCC1C32OO4 (configuration not stated)
Result: > 100 µM
--
Compound: c1ccc(C2(c3cc4ccccc4[nH]3)OCCO2)nc1
Result: > 100 µM

Data request: Reported TGI for COC(=O)C(Cc1c(-c2[nH]c3ccccc3c2CC(NC(C)=O)C(=O)OC)[nH]c2ccccc12)NC(C)=O (configuration not stated) : what is it?
Data returned: > 100 µM

Data request: Quick one: TGI for COc1ccc(/C=C/C(=O)C(=O)/C=C/c2ccc(OC)c(OC)c2)cc1OC ?
Data returned: > 100 µM

Data request: If you can, please state the reported TGI value of COC(=O)CSc1cc(Cl)c(C)cc1S(=O)(=O)Nc1n[nH]c(N)n1 .
Data returned: > 10 µM

###

system: HOP-18 NSCLC; assay: NCI tumour cell line growth inhibition, 48 h
The entries below are paired with their reported TGI.

Compound: COC(=O)C1=C(C)N(NC(N)=O)C2(N)N(NC(N)=O)C(C)=C(C(=O)OC)C12C#N (stereo not drawn)
Assay Endpoint: TGI
Result: > 100 µM
//
Compound: N#CC(Cl)CS(=O)(=O)c1ccccc1 (stereo not drawn)
Assay Endpoint: TGI
Result: 22 µM
//
Compound: Nc1nc(N)c2c(Cl)c(CNc3ccc(Cl)c(Cl)c3)ccc2n1
Assay Endpoint: TGI
Result: 17.1 µM
//
Compound: CC1CN1c1c(C(=O)/C=C/c2ccc(F)cc2)c(-c2ccccc2)nn(C)c1=O (stereo not drawn)
Assay Endpoint: TGI
Result: 33.2 µM
//
Compound: NC(=S)N/N=C/C(O[C@@H](/C=N/NC(N)=S)CO)n1cnc2c(N)ncnc21 (stereo partly drawn)
Assay Endpoint: TGI
Result: > 100 µM
//
Compound: O=C(CC(=O)N1N=C(n2ccc3ccccc32)CC1c1ccccc1)Nc1ccccc1Cl (stereo not drawn)
Assay Endpoint: TGI
Result: > 100 µM
//
Compound: Nc1nc2c(ncn2C2OC(CO)C(O)C2O)c(=O)o1 (stereo not drawn)
Assay Endpoint: TGI
Result: > 100 µM

Data request: Given CC(=O)[CH-]C(=O)c1ccccc1.CC(=O)[CH-]C(=O)c1ccccc1.CC[C@H](CCC(C)[C@H]1CCC2[C@@H]3CC=C4C[C@@H]([O-])CC[C@]4(C)C3CC[C@@]21C)C(C)C.CC[C@H](CCC(C)[C@H]1CCC2[C@@H]3CC=C4C[C@@H]([O-])CC[C@]4(C)C3CC[C@@]21C)C(C)C.Cl.[Ti+4] (stereo partly drawn) , state its recorded TGI.
Data returned: > 25 µM
